System: endogenous TFE3
Test: TFE3 nuclear translocation, immunocytochemistry high-content imaging
Type: cell-based
Conditions: PKIS2 primary screening

[
  {
    "Compound": "COC(=O)Nc1nc2ccc(Oc3ccc(NC(=O)Nc4cc(C(F)(F)F)ccc4Cl)cc3)cc2[nH]1 [GW697465]",
    "TFE3 % [%]": 30.84
  },
  {
    "Compound": "CCC(CC)(CC)n1cnc2c(N)ncnc21 [UNC10225302A]",
    "TFE3 % [%]": 9.37
  },
  {
    "Compound": "O=C(NCCNc1ccnc(Nc2ccc(F)cc2)n1)c1cc2ccccc2s1 [GSK1379874]",
    "TFE3 % [%]": 18.78
  },
  {
    "Compound": "CN(C)c1cc(-c2ccc3c(N)n[nH]c3c2)nc(N)n1 [GSK2219329]",
    "TFE3 % [%]": 13.03
  },
  {
    "Compound": "CN(C)CCNS(=O)(=O)c1ccc(-c2ccnc3[nH]ccc23)cc1 [UNC10225452A]",
    "TFE3 % [%]": 16.94
  },
  {
    "Compound": "CS(=O)(=O)c1ccc(-c2nc3n(c2-c2ccncc2)CCC3)cc1 [UNC10224995A]",
    "TFE3 % [%]": 13.24
  },
  {
    "Compound": "Cc1cc(Nc2nc(-c3cccc(C)n3)nc3ccccc23)ccn1 [GW872411]",
    "TFE3 % [%]": 20.21
  },
  {
    "Compound": "COc1cc(Nc2nccc(N3CCC(NC(=O)C4COc5ccccc5O4)C3)n2)cc(OC)c1OC (stereo not drawn) [GSK1379761]",
    "TFE3 % [%]": 10.33
  },
  {
    "Compound": "CN1C(=O)C(Nc2ccccc2)=C(c2ccccc2)C1=O [UNC10225242A]",
    "TFE3 % [%]": 13.56
  },
  {
    "Compound": "O=C(O)C(F)(F)F.O=c1[nH]ccc2nc(N[C@@H]3CCNC3)nc(Nc3ccc4c(c3)S(=O)(=O)CC4)c12 [UNC10225451A]",
    "TFE3 % [%]": 16.36
  },
  {
    "Compound": "COc1cccc(-c2cc(-c3c[nH]nc3-c3ccccn3)ccn2)c1 [UNC10225448A]",
    "TFE3 % [%]": 7.93
  },
  {
    "Compound": "COC(=O)C(Cc1ccccc1)NC(=O)NC1CCN(c2ccnc(Nc3ccc(F)cc3)n2)C1 (stereo not drawn) [GSK1379714]",
    "TFE3 % [%]": 7.75
  },
  {
    "Compound": "CC1=C(C(=O)Nc2cc3cn[nH]c3cc2F)C(c2ccc(C(F)(F)F)cc2)CC(=O)N1 (stereo not drawn) [UNC10225339A]",
    "TFE3 % [%]": 22.61
  },
  {
    "Compound": "NS(=O)(=O)CCc1cccc(Nc2nccc(-c3c(-c4cccc(NC(=O)c5c(F)cccc5F)c4)nn4ccccc34)n2)c1 [UNC10224988A]",
    "TFE3 % [%]": 7.44
  },
  {
    "Compound": "Cc1ccc(NC(=O)c2ccc(Cl)c(Cl)c2)cc1-c1ccc(C(=O)Nc2ccncc2)cc1 [UNC10225151A]",
    "TFE3 % [%]": 10.75
  },
  {
    "Compound": "CN1CCN(Cc2ccc(NC(=O)Nc3ccc(N(C)c4ccnc(Nc5ccc(CS(C)(=O)=O)cc5)n4)cc3)cc2)CC1 [GW827654]",
    "TFE3 % [%]": 10.58
  },
  {
    "Compound": "COc1cc(Nc2nccc(N3CCC(NC(=O)Nc4ccc5c(c4)OCO5)C3)n2)cc(OC)c1OC (stereo not drawn) [GSK1379766]",
    "TFE3 % [%]": 9.31
  },
  {
    "Compound": "Nc1nc(Nc2ccccc2)cc(-c2ccc3c(N)n[nH]c3c2)n1 [GSK2225749]",
    "TFE3 % [%]": 13.67
  },
  {
    "Compound": "Cn1cc(-c2ccc3c(c2)CCN3C(=O)Cc2cc(F)cc(F)c2F)c2c(N)ncnc21 [UNC10225071A]",
    "TFE3 % [%]": 19.64
  },
  {
    "Compound": "O=C(Nc1ccc2c(c1)OCO2)NC1CCN(c2ccnc(Nc3ccc(F)cc3)n2)C1 (stereo not drawn) [GSK1379724]",
    "TFE3 % [%]": 7.39
  },
  {
    "Compound": "Fc1cccc(COc2ccc(Nc3ncnc4sc(-c5ccc[nH]5)cc34)cc2Cl)c1 [UNC10225101A]",
    "TFE3 % [%]": 15.82
  },
  {
    "Compound": "Cc1ccc(NC(=O)c2cccc(C#N)c2)cc1-c1ccc(C(=O)Nc2ccncc2)cc1 [UNC10225263A]",
    "TFE3 % [%]": 18.65
  },
  {
    "Compound": "COc1cccc(CNC(=O)NC2CCN(c3ccnc(Nc4ccc(F)cc4)n3)C2)c1 (stereo not drawn) [GSK1379723]",
    "TFE3 % [%]": 22.56
  },
  {
    "Compound": "COC(=O)c1cccc(NC(=O)NC2CCN(c3ccnc(Nc4cc(OC)c(OC)c(OC)c4)n3)C2)c1 (stereo not drawn) [GSK1379767]",
    "TFE3 % [%]": 6.50
  },
  {
    "Compound": "CNc1nc(-c2ccc3c(N)n[nH]c3c2)cc(N2C[C@@H](C(=O)NC3CCCCC3)OC[C@H]2C)n1 [GSK2375584]",
    "TFE3 % [%]": 6.46
  },
  {
    "Compound": "FC(F)(F)c1ccc(-c2cc(-c3c[nH]nc3-c3ccccn3)ccn2)cc1 [UNC10225241A]",
    "TFE3 % [%]": 6.11
  },
  {
    "Compound": "CNc1nccc(-c2ccc3c(N)n[nH]c3c2)n1 [GSK2206003]",
    "TFE3 % [%]": 14.62
  },
  {
    "Compound": "CC(C)(CN)c1nc(-c2ccc(Cl)c(O)c2)c(-c2ccncc2)[nH]1.O=C(O)C(F)(F)F [UNC10225206B]",
    "TFE3 % [%]": 3.59
  },
  {
    "Compound": "COC(=O)Nc1nc2ccc(Oc3ccc(NC(=O)Nc4cccc(SC)c4)cc3)cc2[nH]1 [GW697999]",
    "TFE3 % [%]": 19.88
  },
  {
    "Compound": "Fc1cccc(COc2ccc(Nc3ncnc4nn5ccccc5c34)cc2Cl)c1 [UNC10225319A]",
    "TFE3 % [%]": 21.26
  },
  {
    "Compound": "CCOC(=O)N1CCC(n2cnc(-c3ccc(F)cc3)c2-c2ccnc(N)n2)CC1 [UNC10225132A]",
    "TFE3 % [%]": 8.29
  },
  {
    "Compound": "COc1ccc(Nc2nccc(NCCNC(=O)Nc3cc(C)ccc3C)n2)cc1 [GSK1379899]",
    "TFE3 % [%]": 15.31
  },
  {
    "Compound": "Cc1occc1-c1ncc(OC[C@@H](N)Cc2c[nH]c3ccccc23)cc1-c1ccc2[nH]nc(C)c2c1.O=C(O)C(F)(F)F [UNC10243880A]",
    "TFE3 % [%]": 39.74
  }
]
